Target: APOL1 (Homo sapiens, UniProt O14791)
Sequence (O14791 whole entry S342G/I384M, form open): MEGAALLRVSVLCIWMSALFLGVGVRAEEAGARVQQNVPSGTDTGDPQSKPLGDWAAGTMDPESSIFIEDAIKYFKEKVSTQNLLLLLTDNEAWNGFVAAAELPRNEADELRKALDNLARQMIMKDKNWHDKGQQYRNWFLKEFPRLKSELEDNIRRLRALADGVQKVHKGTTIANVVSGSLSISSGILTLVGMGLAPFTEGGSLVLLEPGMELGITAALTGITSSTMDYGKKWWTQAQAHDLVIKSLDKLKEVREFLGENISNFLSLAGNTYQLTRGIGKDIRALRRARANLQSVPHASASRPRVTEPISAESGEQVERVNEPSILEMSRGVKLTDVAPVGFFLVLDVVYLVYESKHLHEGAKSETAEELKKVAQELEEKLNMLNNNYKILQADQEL
Test: MultiTox-Fluor Multiplex Cytotoxicity Assay in tet-inducible APOL1 T-REx-HEK293 cells (cell rescue, ratio of dead to live cells)
Conditions: tet-inducible transgenic APOL1 T-REx-HEK293 cell lines, 50 ng/mL tet, 24 hours; read-out: IP50 (i.e., IC50 for cell proliferation)
pIC50: −log10 of the molar value.
Readings of pIC50 for the listed compounds

Worked cases, pIC50 given:
compound	assay.result
CCc1cc2c(s1)CCOC21CCN(Cc2cn(CC(O)CS(C)(=O)=O)nn2)C(C)C1 (stereo not drawn) [Compound 91]	> 7.00
CCc1cc2c(s1)CCO[C@@]21CCN(CC2CN(C(=O)c3cc(C(F)F)[nH]n3)C2)[C@@H](C)C1 [Compound 461]	> 7.00
C[C@H]1C[C@@]2(CCN1Cc1cnn(C[C@@H](O)C(=O)NC3CC3)c1)OC[C@@H](O)c1cc(C(F)(F)F)sc12 [Compound 995]	> 7.00
C[C@H]1C[C@@]2(CCN1Cc1ncccc1F)OCCc1cc(CC(F)F)sc12 [Compound 589]	6.00 to 6.30
CCc1cc2c(s1)CCO[C@@]21CCN(Cc2cn(CCNC(=O)c3cnc(C)cn3)nn2)[C@@H](C)C1 [Compound 50]	> 7.00

What pIC50 appears in the records for this compound with APOL1 (Homo sapiens, UniProt O14791)? CCc1cc2c(s1)CCO[C@@]21CCN(Cc2cn(CCO)nn2)[C@@H](C)C1 [Compound 154]
> 7.00

What pIC50 appears in the records for this compound with APOL1 (Homo sapiens, UniProt O14791)? CCc1cc2c(s1)CCOC21CCN(Cc2cn(CCC(=O)NC)nn2)CC1 [Compound 1120]
6.00 to 6.30

What pIC50 appears in the records for this compound with APOL1 (Homo sapiens, UniProt O14791)? CC(C)Cc1cc2c(s1)CCO[C@@]21CCN(Cc2cnn(C)c2)[C@@H](C)C1 [Compound 521]
> 7.00

What pIC50 appears in the records for this compound with APOL1 (Homo sapiens, UniProt O14791)? CCc1cc2c(s1)CCO[C@@]21CCN(Cc2cn(Cc3nccn3C)nn2)[C@@H](C)C1 [Compound 56]
> 7.00
